# Target desc: T1, Recombinant purified human PD-1 protein, residues Leu25-Thr168, with a C-terminal 6-His tag (human, UniProt Q15116)
# T1 construct: programmed cell death protein 1 (PD-1), human, residues Leu25-Thr168; monomer; the results call it wild-type or full length PD-1 against the P35-Q167 fragment; also called PD-1-His; PD-1 His-tagged monomer; source: bought: R&D Systems; not shown: His6, C-terminal, kept
# T1 sequence (Q15116 25-168): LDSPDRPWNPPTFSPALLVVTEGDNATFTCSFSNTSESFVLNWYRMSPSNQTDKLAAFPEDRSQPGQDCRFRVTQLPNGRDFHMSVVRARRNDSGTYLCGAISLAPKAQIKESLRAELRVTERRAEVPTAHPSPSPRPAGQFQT
# Measurement notes: SPR; Carterra LSA, CMD-P (flat) chip; mAbs captured on goat anti-human IgG Fc in a 384-spot array; PD-1-His analyte 0.5-1000 nM, 5 min association, 20 min dissociation; HBS-ET + 0.5 mg/ml BSA; 1:1 Langmuir fit; mean of spots; apparent
# Condition notes: both partners purified
Exercise: for every item that follows, state its recorded kon.
One number for each entry, in M⁻¹ s⁻¹.

mAb21 (analog of sintilimab) (antibody, V domains shown, VH; IgG4 heavy-chain constant region with stabilizing 226CPPC hinge; VL; IgG4 analog; source: HEK293 suspension cells, cotransfected, purified (Protein A)) VH: QVQLVQSGAEVKKPGSSVKVSCKASGGTFSSYAISWVRQAPGQGLEWMGLIIPMFDTAGYAQKFQGRVAITVDESTSTAYMELSSLRSEDTAVYYCARAEHSSTGTFDYWGQGTLVTVSS VL: DIQMTQSPSSVSASVGDRVTITCRASQGISSWLAWYQQKPGKAPKLLISAASSLQSGVPSRFSGSGSGTDFTLTISSLQPEDFATYYCQQANHLPFTFGGGTKVEIK = 330000
mAb04 (analog of retifanlimab) (antibody, V domains shown, VH; IgG4 heavy-chain constant region with stabilizing 226CPPC hinge; VL; IgG4 analog; source: HEK293 suspension cells, cotransfected, purified (Protein A)) VH: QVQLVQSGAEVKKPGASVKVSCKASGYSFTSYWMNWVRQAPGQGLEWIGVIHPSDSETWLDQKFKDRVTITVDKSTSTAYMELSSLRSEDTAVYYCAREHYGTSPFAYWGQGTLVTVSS VL: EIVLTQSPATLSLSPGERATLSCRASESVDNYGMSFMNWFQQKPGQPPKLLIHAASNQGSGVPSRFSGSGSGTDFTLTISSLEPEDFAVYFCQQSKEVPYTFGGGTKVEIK = 580000

// next item, kon requested
Inquiry: Input mAb16 (analog of dostarlimab) (antibody, V domains shown, VH; IgG4 heavy-chain constant region with stabilizing 226CPPC hinge; VL; IgG4 analog; source: HEK293 suspension cells, cotransfected, purified (Protein A)) VH: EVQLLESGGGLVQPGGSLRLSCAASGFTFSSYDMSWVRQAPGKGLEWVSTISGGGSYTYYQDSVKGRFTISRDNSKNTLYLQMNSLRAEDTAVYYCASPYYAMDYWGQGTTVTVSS VL: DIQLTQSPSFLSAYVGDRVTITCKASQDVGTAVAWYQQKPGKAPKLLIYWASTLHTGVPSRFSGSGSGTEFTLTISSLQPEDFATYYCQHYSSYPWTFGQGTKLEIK , output reported kon.
Reply text: 240000
